Some binders, each annotated with its measured fold over background.
Target: T1, SARS-CoV-2 Spike RBD N501Y (SARS-CoV-2, UniProt P0DTC2 319-541)
T1 construct: domain: RBD
Assay: HTRF, soluble RBD construct
Dear colleague, please return just the value in fold over background, with no unit written.

Lab note: PR194_00292 (antibody, V domains shown) VH: QVQLQQWGAGLLKPSETLSLTCAVYGGSLSGYYWSWIRQPPGKGLEWIGEINHSGSTNHNPSLKSRVSISVDTSKNQFSLKLSSVTAADTAVYYCARAWKYSSSWYSGGIYYGMDVWGQGTTVTVSS VL: QSALTQPASVSGSPGQSITISCSGTSSDVGSYNLVSWYQQHPGKAPKLMIYEGTKRPSGVSNRFSSSKSGNTASLTISGLQAEDEADYYCCSYAGFSTWVFGGGTKLTVL gave fold over background of 0.996

Lab note: PR201_00151 (antibody, V domains shown) VH: RVTLRESGPALVKPTQTLTLTCTFSGFSLNTSGMCVSWIRQPPGKALEWLARIDWDDDKYYSTSLETRLTISKDTSKNQVVLTMTNLDPVDTGTYYCARISIQSRGGGADYWGQGTLVTVSS VL: DIQMTQSPSSLSASVGDRVTITCRASQSISSYLHWYQQKSGKAPKLLIFVASTLQSGVPSRFSGSGSGTDFTLTISSLQPEDSAAYYCQQSYSPPWTFGQGTKVEIK gave fold over background of 6.16

Lab note: PR199_00255 (antibody, V domains shown, also called IMM20279; PR190_00255) VH: QVQLVESGGGVVQPGRSLRLSCAASGFTFSTYGMHWVRQAPGKGLEWVAVIWYNGINKHYADSVKGRFTISRDNSKNTLYLQMSSLRVEDTAVYYCARDWGTLTTLFDFWGQGTLVTVSS VL: DIQMTQSPSSLSASVGERATITCRASQSISSHLNWYQQKPGKAPKFLIYGASSLQSGVPSRFSGSGSGTDFTLTISSLQPEDFATYYCQQSYSTPPWTFGQGTKVEIK gave fold over background of 6.15

# evaluate next
Lab note: PR194_00232 (antibody, V domains shown, also called IMM20190; PR194_00190) VH: EVQLVESGGGLVQPGGSLRLSCSASGFTVSSNYMSWVRQAPRKGLEWVSVIYAGGSTFYADSVKGRFTISRDNSKNTLLLQMNSLRAEDTAVYYCARDRGGYLDYWGQGTLVTVSS VL: DIQMTQSPSSLSASVGDRVTITCRASQGISNYLAWYQQKPGKVPKLLIYAASTLQSGVPSRFSGSGSGTDFTLTISSLQPEDVATYYCQKYNSAPGLTFGGGTKVEIK gave fold over background of 4.3
